Measured values drawn from PubChem BioAssay (NCATS) for this set.

# Tested on: Es-2
# PROCEDURE_TEXT: Primary qHTS to identify gynecologic anti-cancer compounds using libraries of approved drugs and bioactive compounds (AID 1345084); note: nearly all actives have a fitted effect of over 55% in size
# CONDITION_DESCRIPTION: Gynecologic cancer cell panel viability, ATPlite luminescence, 48 h; series mostly up to 57.5 µM
Records with an inconclusive call do not appear. Active and inactive are the calls of the source. Calls come from the whole dose curve; as a rule, active = well fitted cell-killing curve with a large enough effect; inconclusive = small, poorly fitted or top-dose-only effect, or effect the other way; inactive = flat fitted curve, though single readings scatter.
Possible outcomes: class 1 (active), class 0 (inactive)

>>> print(df.to_string())
                                    molecule    class
 0                     Oc1ccc(OCc2ccccc2)cc1  class 0
 1  CCC[C@@H]1C[C@@H](C(=O)N[C@@H]([C@H]2O[C@H](SC)[C@H](O)[C@@H](O)[C@H]2O)[C@@H](C)O)N(C)C1  class 0
 2          CN1CCC(=C2c3ccccc3CCc3sccc32)CC1  class 0
 3         O=C(O)c1cccnc1Nc1cccc(C(F)(F)F)c1  class 0
 4  N=C(N)c1ccc2cc(OC(=O)c3ccc(N=C(N)N)cc3)ccc2c1  class 0
 5            C=CCc1cc(OC)c(O)c(C(=O)NCCO)c1  class 0
 6  CCC1=C(C)CN(C(=O)NCCc2ccc(S(=O)(=O)NC(=O)NC3CCC(C)CC3)cc2)C1=O (centres undefined)  class 0
 7  COc1ccc(C2(C#N)CCC(C(=O)O)CC2)cc1OC1CCCC1 (centres undefined)  class 0
 8           NC(=O)Cc1cccc(C(=O)c2ccccc2)c1N  class 0
 9  COc1cc2nc(N3CCN(C(=O)C4CCCO4)CC3)nc(N)c2cc1OC (centres undefined)  class 0
10  COc1c(O)cc2c(c1O)[C@@H]1O[C@H](CO)[C@@H](O)[C@H](O)[C@H]1OC2=O  class 0
11  O=C(O)CCNC(=O)c1ccc(N=Nc2ccc(O)c(C(=O)O)c2)cc1  class 0
12             O=C(NCCO[N+](=O)[O-])c1cccnc1  class 0
13  O=C(O)c1cc(=O)c2c(OCC(O)COc3cccc4oc(C(=O)O)cc(=O)c34)cccc2o1  class 0
14       COc1cc(OC)c(C(=O)CCCN2CCCC2)c(OC)c1  class 0
15  Clc1ccc(C(Cn2ccnc2)OCc2ccc(Sc3ccccc3)cc2)c(Cl)c1 (centres undefined)  class 0
16  COc1ccccc1N1CCN(CCN(C(=O)C2CCCCC2)c2ccccn2)CC1  class 0
17  N[C@@H](Cc1cc(I)c(Oc2cc(I)c(O)c(I)c2)c(I)c1)C(=O)O  class 0
18  CC(C)c1nc(CN(C)C(=O)N[C@H](C(=O)N[C@@H](Cc2ccccc2)C[C@H](O)[C@H](Cc2ccccc2)NC(=O)OCc2cncs2)C(C)C)cs1  class 0
19  Cc1nccn1CC1CCc2c(c3ccccc3n2C)C1=O (centres undefined)  class 0
20  CC1=C(C(=O)O)N2C(=O)[C@@H](NC(=O)[C@H](N)C3=CCC=CC3)[C@H]2SC1  class 0
21                CS(=O)(=O)OCCCCOS(C)(=O)=O  class 0
22  O=C(c1ccccc1)c1ccc2n1CCC2C(=O)O (centres undefined)  class 0
23  Clc1ccc(C(Cn2ccnc2)OCc2c(Cl)cccc2Cl)c(Cl)c1 (centres undefined)  class 0
24                 COc1c2occc2cc2ccc(=O)oc12  class 0
25  COc1cc(C(C)=O)ccc1OCCCN1CCC(c2noc3cc(F)ccc23)CC1  class 0
26            CCCCc1ccc2nc(NC(=O)OC)[nH]c2c1  class 1
27  CCCCN(CCCC)CCC(O)c1cc2c(Cl)cc(Cl)cc2c2cc(C(F)(F)F)ccc12 (centres undefined)  class 0
28                          NNc1nncc2ccccc12  class 0
29  Cc1cc(=O)c2c(O)c3c(O)cc(=O)c4c3c3c(cc(O)c1c23)C(C)(C)C=4O  class 1
30  CCCCCCCCOc1ccccc1C(=O)Nc1ccc(C(=O)OCC[N+](C)(CC)CC)cc1  class 0
31             CCc1nc(N)nc(N)c1-c1ccc(Cl)cc1  class 1
32                Cc1cc(C2CCCCC2)n(O)c(=O)c1  class 1
33  COCCCOc1ccnc(CS(=O)c2nc3ccccc3[nH]2)c1C (centres undefined)  class 0
34  COC(=O)C1=C(C)NC(C)=C(C(=O)OC(C)C)C1c1cccc2nonc12 (centres undefined)  class 0
35  Cc1ccc(Nc2nccc(N(C)c3ccc4c(C)n(C)nc4c3)n2)cc1S(N)(=O)=O  class 0
36  Cc1ccc(S(=O)(=O)NC(=O)NN2CC3CCCC3C2)cc1 (centres undefined)  class 0
37          COc1ccc2cc([C@H](C)C(=O)O)ccc2c1  class 0
38  O=C(O)c1cn(-c2ccc(F)cc2)c2cc(N3CCNCC3)c(F)cc2c1=O  class 0
39  CCCS(=O)c1ccc2nc(NC(=O)OC)[nH]c2c1 (centres undefined)  class 0
40  CN(C)c1ccc(O)c2c1C[C@H]1C[C@H]3[C@H](N(C)C)C(=O)C(C(N)=O)=C(O)[C@@]3(O)C(=O)C1=C2O  class 0
41                     Nc1ccc(S(N)(=O)=O)cc1  class 0
42    CC(S)C(=O)NCC(=O)O (centres undefined)  class 0
43  Nc1cccc2c1CN(C1CCC(=O)NC1=O)C2=O (centres undefined)  class 0
